subject-of-test: UniProtKB P35372
Sequence (P35372 whole entry): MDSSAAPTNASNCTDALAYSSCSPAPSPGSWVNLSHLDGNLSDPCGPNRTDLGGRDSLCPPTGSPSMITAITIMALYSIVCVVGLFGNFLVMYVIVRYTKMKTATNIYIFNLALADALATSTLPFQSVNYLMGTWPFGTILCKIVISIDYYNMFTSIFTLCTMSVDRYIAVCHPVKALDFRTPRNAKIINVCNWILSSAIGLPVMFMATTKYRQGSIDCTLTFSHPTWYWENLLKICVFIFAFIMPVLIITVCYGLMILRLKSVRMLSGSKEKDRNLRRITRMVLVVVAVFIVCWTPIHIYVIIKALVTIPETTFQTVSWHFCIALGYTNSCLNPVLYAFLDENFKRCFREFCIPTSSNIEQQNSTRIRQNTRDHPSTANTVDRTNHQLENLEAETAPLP
protocol-text: Agonist activity at human MOR expressed in CHO-K1 cells co-expressing G-alpha15 by calcium mobilization assay
Format: functional, cell-based
pEC50: −log10 of the molar value.

smiles-entry: NC(=O)[C@H]1CCCN1C(=O)[C@@H]1CC(=O)NCCCC[C@@H](NC(=O)[C@@H](N)Cc2ccc(O)cc2)C(=O)NCC(=O)N[C@@H](Cc2ccccc2)C(=O)N1
subject-of-test: UniProtKB P35372
pEC50: 7.51
--
smiles-entry: NC(=O)[C@@H]1CCCN1C(=O)[C@H]1CC(=O)NCCCC[C@@H](NC(=O)[C@@H](N)Cc2ccc(O)cc2)C(=O)N2CCC[C@H]2C(=O)N[C@@H](Cc2ccccc2)C(=O)N1
subject-of-test: UniProtKB P35372
pEC50: 5.68
--
smiles-entry: NC(=O)[C@@H]1CCCN1C(=O)[C@H]1CC(=O)NCCCC[C@@H](NC(=O)[C@@H](N)Cc2ccc(O)cc2)C(=O)NCC(=O)N[C@H](Cc2ccccc2)C(=O)N1
subject-of-test: UniProtKB P35372
pEC50: 7.38
--
smiles-entry: CCCC[C@@H]1NC(=O)[C@H](NC(=O)[C@@H](N)Cc2ccc(O)cc2)CCCCNC(=O)C[C@H](C(=O)N2CCC[C@H]2C(N)=O)NC(=O)[C@H](Cc2ccccc2)NC1=O
subject-of-test: UniProtKB P35372
pEC50: 5.66
--
smiles-entry: N[C@@H](Cc1ccc(O)cc1)C(=O)N[C@@H]1CCCCNC(=O)C[C@H](C(=O)N2CCC[C@H]2C(=O)O)NC(=O)[C@H](Cc2ccccc2)NC(=O)CNC1=O
subject-of-test: UniProtKB P35372
pEC50: 8.42

----------
subject-of-test: Kappa-type opioid receptor (Homo sapiens)
Sequence (P41145 whole entry): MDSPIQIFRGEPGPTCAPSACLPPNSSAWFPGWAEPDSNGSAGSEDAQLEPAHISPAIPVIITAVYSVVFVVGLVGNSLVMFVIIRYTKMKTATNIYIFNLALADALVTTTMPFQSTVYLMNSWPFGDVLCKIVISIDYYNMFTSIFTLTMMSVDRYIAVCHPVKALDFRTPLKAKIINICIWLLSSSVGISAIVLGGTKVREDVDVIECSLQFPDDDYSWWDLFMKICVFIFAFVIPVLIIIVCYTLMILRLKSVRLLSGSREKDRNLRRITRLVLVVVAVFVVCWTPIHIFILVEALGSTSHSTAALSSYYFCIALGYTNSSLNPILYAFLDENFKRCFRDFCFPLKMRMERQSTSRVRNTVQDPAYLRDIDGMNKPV
protocol-text: Agonist activity at human KOR expressed in CHO-K1 cells co-expressing G-alpha15 by calcium mobilization assay
Type: functional, cell-based
particulars: cho-k1
pEC50: −log10 of the molar value.
parameter: pEC50

smiles-entry: NC(=O)[C@@H]1CC(=O)NCCCC[C@@H](NC(=O)[C@@H](N)Cc2ccc(O)cc2)C(=O)NCC(=O)N[C@@H](Cc2ccccc2)C(=O)N1
parameter: pEC50
result: 5.89
--
smiles-entry: NC(=O)[C@H]1CCCCN1C(=O)[C@H]1CC(=O)NCCCC[C@@H](NC(=O)[C@@H](N)Cc2ccc(O)cc2)C(=O)NCC(=O)N[C@@H](Cc2ccccc2)C(=O)N1
parameter: pEC50
result: 5.64
--
smiles-entry: CN1C(=O)CNC(=O)[C@H](NC(=O)[C@@H](N)Cc2ccc(O)cc2)CCCCNC(=O)C[C@@H](C(=O)N2CCC[C@@H]2C(N)=O)NC(=O)[C@@H]1Cc1ccccc1
parameter: pEC50
result: 6.30
--
smiles-entry: NC(=O)[C@H]1CCCN1C(=O)[C@@H]1CC(=O)NCCCC[C@@H](NC(=O)[C@@H](N)Cc2ccc(O)cc2)C(=O)NCC(=O)N[C@@H](Cc2ccc(F)cc2)C(=O)N1
parameter: pEC50
result: 7.04

----------
subject-of-test: Delta-type opioid receptor (Homo sapiens, UniProt P41143)
Sequence (P41143 whole entry): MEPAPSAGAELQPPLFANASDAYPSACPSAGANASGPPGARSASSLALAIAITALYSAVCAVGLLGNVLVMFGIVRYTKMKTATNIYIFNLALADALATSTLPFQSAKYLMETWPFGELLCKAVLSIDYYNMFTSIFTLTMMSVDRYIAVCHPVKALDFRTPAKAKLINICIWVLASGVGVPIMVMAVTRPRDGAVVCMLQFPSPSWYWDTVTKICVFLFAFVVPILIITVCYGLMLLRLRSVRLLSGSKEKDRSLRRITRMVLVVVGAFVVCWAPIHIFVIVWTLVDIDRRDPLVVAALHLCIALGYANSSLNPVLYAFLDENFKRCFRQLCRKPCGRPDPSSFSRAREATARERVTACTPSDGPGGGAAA
protocol-text: Agonist activity at human DOR expressed in CHO-K1 cells co-expressing G-alpha15 by calcium mobilization assay
Type: functional, cell-based
particulars: cho-k1
Recorded measurements of EC50, one per entry
parameter: EC50 (nM)

smiles-entry: NC(=O)[C@H]1CCCN1C(=O)[C@@H]1CC(=O)NCCCC[C@@H](NC(=O)[C@@H](N)Cc2ccc(O)cc2)C(=O)NCC(=O)N[C@@H](CCc2ccccc2)C(=O)N1
result: 64.4
//
smiles-entry: CC1(C)NC(=O)[C@H](NC(=O)[C@@H](N)Cc2ccc(O)cc2)CCCCNC(=O)C[C@@H](C(=O)N2CCC[C@@H]2C(N)=O)NC(=O)[C@H](Cc2ccccc2)NC1=O
result: 49.1
//
smiles-entry: NC(=O)[C@H]1CCCN1C(=O)[C@@H]1CC(=O)NCCCC[C@@H](NC(=O)[C@@H](N)Cc2ccc(O)cc2)C(=O)NCC(=O)N(Cc2ccccc2)CC(=O)N1
result: 837
//
smiles-entry: NC(=O)[C@H]1CCCN1C(=O)[C@@H]1CC(=O)NCCCC[C@@H](NC(=O)[C@@H](N)Cc2ccc(O)cc2)C(=O)NCC(=O)N[C@@H](Cc2ccc(F)cc2)C(=O)N1
result: 0.6
//
smiles-entry: NC(=O)[C@@H]1CC(=O)NCCCC[C@@H](NC(=O)[C@@H](N)Cc2ccc(O)cc2)C(=O)NCC(=O)N[C@@H](Cc2ccccc2)C(=O)N1
result: 12.5
//
smiles-entry: CN1CC(=O)N[C@@H](Cc2ccccc2)C(=O)N[C@H](C(=O)N2CCC[C@@H]2C(N)=O)CC(=O)NCCCC[C@@H](NC(=O)[C@@H](N)Cc2ccc(O)cc2)C1=O
result: 3030
//
smiles-entry: NC(=O)[C@H]1CCCN1C(=O)[C@@H]1CC(=O)NCCCC[C@@H](NC(=O)[C@@H](N)Cc2ccc(O)cc2)C(=O)NCC(=O)N[C@@H](Cc2ccc3ccccc3c2)C(=O)N1
result: 2.2
//
smiles-entry: NC(=O)CNC(=O)[C@@H]1CC(=O)NCCCC[C@@H](NC(=O)[C@@H](N)Cc2ccc(O)cc2)C(=O)NCC(=O)N[C@@H](Cc2ccccc2)C(=O)N1
result: 623
//
smiles-entry: Cc1ccc(C[C@@H]2NC(=O)CNC(=O)[C@H](NC(=O)[C@@H](N)Cc3ccc(O)cc3)CCCCNC(=O)C[C@@H](C(=O)N3CCC[C@@H]3C(N)=O)NC2=O)cc1
result: 22.2
//
smiles-entry: C[C@@H]1NC(=O)[C@H](NC(=O)[C@@H](N)Cc2ccc(O)cc2)CCCCNC(=O)C[C@H](C(=O)N2CCC[C@H]2C(N)=O)NC(=O)[C@H](Cc2ccccc2)NC1=O
result: 52
//
smiles-entry: CN1C(=O)CNC(=O)[C@H](NC(=O)[C@@H](N)Cc2ccc(O)cc2)CCCCNC(=O)C[C@@H](C(=O)N2CCC[C@@H]2C(N)=O)NC(=O)[C@@H]1Cc1ccccc1
result: 17.5
//
smiles-entry: Cc1cc(O)cc(C)c1C[C@H](N)C(=O)N[C@@H]1CCCCNC(=O)C[C@@H](C(=O)N2CCC[C@@H]2C(N)=O)NC(=O)[C@H](Cc2ccccc2)NC(=O)CNC1=O
result: 1.2
